Each recorded value in this set is attributed to paper PMC6152724.

# TESTED SYSTEM: LPO purified from bovine milk (Bos taurus)
# Construct: from tissue; host or cells: fresh bovine milk
# ASSAY METHOD TEXT: LPO inhibition assay (ABTS oxidation by H2O2, absorbance at 412 nm; Lineweaver–Burk plots)
# Assay type: biochemical
# TEST CONDITIONS: with respect to ABTS substrate; from Lineweaver–Burk plots

COMPOUND: CC(=O)Oc1ccc(C(=O)Nc2ccc(S(=O)(=O)Nc3nccs3)cc2)cc1 [5a, N-(sulfathiazole)-p-acetoxybenzamide]
Inhibition Type: Non-competitive
//
COMPOUND: O=C(Nc1ccc(S(=O)(=O)Nc2ncccn2)cc1)c1cc(O)c(O)c(O)c1
Inhibition Type: Non-competitive

* * *

# TESTED SYSTEM: LPO purified from bovine milk (Bos taurus)
# Construct: from tissue; host or cells: fresh bovine milk
# ASSAY METHOD TEXT: LPO inhibition assay (ABTS oxidation by H2O2, absorbance at 412 nm; Lineweaver–Burk plots)
# Format: biochemical
# TEST CONDITIONS: with respect to ABTS substrate; from Lineweaver–Burk plots
ASSAY METRIC: Inhibition Type

Record excerpt, results attached:
COMPOUND: Cc1cc(C)nc(NS(=O)(=O)c2ccc(NC(=O)c3cc(O)c(O)c(O)c3)cc2)n1 [8c]
Inhibition Type: Competitive
//
COMPOUND: Cc1nnc(NS(=O)(=O)c2ccc(NC(=O)c3cc(O)c(O)c(O)c3)cc2)s1 [8f]
Inhibition Type: Non-competitive
//
COMPOUND: CC(=O)Oc1cc(C(=O)Nc2ccc(S(=O)(=O)Nc3onc(C)c3C)cc2)cc(OC(C)=O)c1OC(C)=O [6e]
Inhibition Type: Competitive
//
COMPOUND: Cc1cc(C)nc(NS(=O)(=O)c2ccc(N)cc2)n1 [4c, Sulfamethazine, reference compound]
Inhibition Type: Non-competitive
//
COMPOUND: Nc1ccc(S(=O)(=O)Nc2ccccn2)cc1 [4d, Sulfapyridine, reference compound]
Inhibition Type: Competitive

Any idea what its Inhibition Type is? The compound is Cc1nnc(NS(=O)(=O)c2ccc(NC(=O)c3ccc(O)cc3)cc2)s1 [7f, N-(sulfamethizole)-p-hydroxybenzamide]
Competitive

Look up Inhibition Type: CC(=O)Oc1ccc(C(=O)Nc2ccc(S(=O)(=O)Nc3onc(C)c3C)cc2)cc1 [5e, N-(sulfisoxazole)-p-acetoxybenzamide]
Competitive

* * *

# TESTED SYSTEM: LPO purified from bovine milk (Bos taurus, UniProt P80025)
# Construct: from tissue; host or cells: fresh bovine milk
# ASSAY METHOD TEXT: LPO inhibition assay (ABTS oxidation by H2O2, absorbance at 412 nm; Lineweaver–Burk plots)
# Format: biochemical
# TEST CONDITIONS: LPO purified from bovine milk; Lineweaver–Burk plots, three inhibitor and five ABTS concentrations; Means ± SD
# pKi annotations
FYI, pKi means -log10 of a concentration in mol per litre.

Look over these answered cases.
MOLECULE: Cc1ccnc(NS(=O)(=O)c2ccc(N)cc2)n1 [4g, Sulfamerazine, reference compound]
pKi: 4.69

MOLECULE: Cc1cc(C)nc(NS(=O)(=O)c2ccc(NC(=O)c3ccc(O)cc3)cc2)n1 [7c, N-(sulfamethazine)-p-hydroxybenzamide]
pKi: 6.32

MOLECULE: Cc1ccnc(NS(=O)(=O)c2ccc(NC(=O)c3cc(O)c(O)c(O)c3)cc2)n1
pKi: 5.41

Next molecule, pKi to be filled in.
For `CC(=O)Oc1cc(C(=O)Nc2ccc(S(=O)(=O)Nc3ncccn3)cc2)cc(OC(C)=O)c1OC(C)=O` , what is its reported pKi?
5.54
